target: Torsin-1A (Homo sapiens); assay: small-molecule binders of mutant TOR1A in lysate, primary screen, cell lysate, small-molecule microarray, COS7 lysate, 635/667 nm fluorescence (AID 1150); settings: COS7 hTOR1A mutant lysate, 635 nm fluorescence, higher = more signal;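 also: score pools 667 nm emission and signal to noise measuring lysate protein binding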
assay_metric: composite z-score

>>> result("COC(=O)[C@]1(CO)N=C(c2ccc(OCCCO)cc2)O[C@@H]1c1ccccc1N=[N+]=[N-]")
1.9
>>> result("CC(=O)OC[C@H]1O[C@H](CCON=C[C@@H](C)[C@H](OCc2ccccc2)C(C)C)C=C[C@@H]1OC(C)=O")
0.284
>>> result("CCN1C(=O)[C@H]2[C@H]3[C@H](O)[C@H](O)CC(=NOC(C)CN4CCCCc5nc(C)c(C)cc54)[C@@H]3CC[C@H]2C1=O (some centres undefined)")
0.769
>>> result("COC(=O)C1=C(C)[C@@H](O)[C@@H](C)[C@H](c2c(OC)c(OC)c(C)c(OC)c2OC)O1")
0.553
>>> result("CO[C@@H]1COC(=O)[C@@H]2CCCN2C(=O)[C@@H](C)COC(=O)[C@H](COCc2ccccc2)NC(=O)CC=C[C@H]1C")
0.121
>>> result("O=C(NN=C1C[C@@H](O)[C@@H](O)[C@@H]2[C@@H]3C(=O)N(c4cccc(Oc5ccccc5)c4)C(=O)[C@@H]3CC[C@@H]12)OCc1ccccc1")
0.31
>>> result("O=C1[C@H]2[C@H]3[C@H](O)[C@H](O)CC(=NO[C@@H]4O[C@H](CO)[C@@H](O)[C@H](O)[C@H]4O)[C@H]3CC[C@H]2C(=O)N1C1CCCCC1")
0.843
>>> result("O=C1[C@H]2[C@H]3[C@H](O)[C@H](O)CC(=NO[C@@H]4O[C@H](CO)[C@@H](O)[C@H](O)[C@H]4O)[C@@H]3CC[C@H]2C(=O)N1Cc1ccccc1")
0.409
>>> result("CC(C)=CCCC(C)=CCON=C1[C@H]2CCn3c(=O)n(C)c(=O)n3[C@H]2[C@H](O)[C@@H]2O[C@H]12")
0.898
>>> result("CCOC(=O)[C@H](Cc1ccccc1)NC(=O)CCC1CC(OC(=O)NCc2ccc3c(c2)OCO3)CC2(CCCC(COC(=O)NCc3ccccc3)O2)O1 (some centres undefined)")
0.28
>>> result("C=C(/C(=C/C[C@H](OC(C)=O)c1ccc(OCCO)cc1)c1cnc2ccccc2c1)C(C)C")
1
>>> result("O=C1[C@H]2[C@H]3[C@H](O)[C@H](O)CC(=NOC[C@@H](O)COCc4ccco4)[C@H]3CC[C@H]2C(=O)N1C1CCCCC1")
1.64
>>> result("CC(=O)OC[C@H]1O[C@@H](ON=C[C@@H](C)[C@H](OCc2ccccc2)C(C)C)[C@H](OC(C)=O)[C@@H](OC(C)=O)[C@@H]1OC(C)=O")
0.958
>>> result("O=C(NN=C1C[C@@H](O)[C@@H](O)[C@@H]2[C@@H]3C(=O)N(c4cccc(Oc5ccccc5)c4)C(=O)[C@@H]3CC[C@H]12)OCc1ccccc1")
-0.104
>>> result("O=C1[C@H]2[C@H]3[C@H](O)[C@H](O)CC(=NOC[C@@H](O)COCc4ccco4)[C@@H]3CC[C@H]2C(=O)N1c1ccc(F)cc1F")
0.516
>>> result("CCN1C(=O)[C@H]2[C@H]3[C@H](O)[C@H](O)CC(=NOCC=C(C)CCC=C(C)C)[C@H]3CC[C@H]2C1=O")
0.43
>>> result("CCOC(=O)[C@H](CC(C)C)NC(=O)CCC1CC(OC(=O)NCc2cccc3ccccc23)CC2(CCCC(COC(=O)NCCc3ccccc3OC)O2)O1 (some centres undefined)")
0.408
>>> result("COc1ccccc1CN1C(=O)c2ccccc2[C@@]2(Cc3ccccc3N(C(C)C)C2=O)[C@@H]1c1ccc(CO)cc1")
0.373
>>> result("CC(C)(C)OC(=O)CC[C@]1(C(N)=O)COC(c2ccc(OCCCO)cc2)=N1")
0.493
>>> result("Cc1cc(C)c(-c2cc([C@H](C)ON=C3[C@H]4CCn5c(=O)n(-c6ccccc6)c(=O)n5[C@H]4[C@H](O)[C@@H]4O[C@H]34)on2)c(C)c1")
0.754
>>> result("COC(=O)[C@H](C)NC(=O)[C@@H](C)CO")
0.461
>>> result("COC(=O)CC1OC1[C@H](C)[C@@H](OC)C(C)C (some centres undefined)")
0.0299
>>> result("COCCOC(=O)N1C(=O)[C@@]2(c3cc(C#CCNC(N)=O)ccc31)[C@H](c1ccccc1OCCO)N1[C@H](c3ccccc3)[C@H](c3ccccc3)OC(=O)[C@H]1[C@@H]2C(=O)N1CCN(c2ncccn2)CC1")
0.923
>>> result("O=C1[C@H]2[C@H]3[C@H](O)[C@H](O)CC(=NOCc4ccccc4)[C@@H]3CC[C@H]2C(=O)N1Cc1ccccc1")
0.282
>>> result("COc1ccc(O[C@H]2C=C[C@@H](c3ccccc3)O[C@@H]2COC(=O)CCC(C)=NOC[C@@H](C)[C@H](OCc2ccccc2)C(C)C)cc1")
-0.632
>>> result("CC1(C)OCC(C(O)C2=CCCCC2=O)CO1 (centres undefined)")
0.803
>>> result("C[C@@H](c1ccccc1)N1C(=O)[C@H]2[C@H]3[C@H](O)[C@H](O)CC(=NOC[C@@H](O)COCc4ccco4)[C@@H]3CC[C@H]2C1=O")
-0.294
>>> result("N#Cc1ccc(NN2C(C(O)c3cccc4ccccc34)C=CC3C(=O)N(c4ccccc4)C(=O)C32)cc1 (centres undefined)")
0.358
>>> result("Cc1ccc(F)cc1S(=O)(=O)N[C@@H]1CCN(Cc2ccc(CC(C)C)cc2)C1")
-0.859

###

target: NADPH oxidase 4 (Homo sapiens); experiment: NOX4-dependent H2O2 signal modulators, primary screen, NOX inhibitor project, cell-based, HEK293-NOX4, tetracycline-induced, Amplex Red fluorescence (AID 1160); settings: 45 min, higher = more signal, called active from +8 up or from −8 down
Binary call on z-score: YES from 0.5 upward, NO beneath that.

>>> label_class("O=C1NC(=O)C2C1C=CC(C(O)Cc1ccccc1)N2Nc1ccccn1 (stereo not drawn)")
"NO"
>>> label_class("CC(C)C[C@@H]1NC(=O)[C@H]2C[C@@H](C(=O)NCCCCCCN(C)C)[C@@H](c3cccc(OCCO)c3)N2C1=O")
"YES"
>>> label_class("CCCC[C@@H](O)C1=C(C)C[C@H]2C(=O)N(Cc3ccccc3)C(=O)[C@H]2[C@H]1CO")
"NO"
>>> label_class("COC(=O)[C@H](C)NC(=O)CCC1CC(OC(=O)NCc2cccc3ccccc23)CC2(CCCC(COC(=O)NCC3CCCCC3)O2)O1 (stereo partly drawn)")
"NO"
>>> label_class("COC(=O)CC=C[C@H](C)[C@@H](OCc1ccccc1Br)C(C)C")
"NO"
>>> label_class("O=C1[C@H]2[C@H]3[C@H](O)[C@H](O)CC(=NOC[C@@H](O)COCc4ccco4)[C@@H]3CC[C@H]2C(=O)N1c1ccc(F)cc1F")
"YES"
>>> label_class("COC(=O)c1c(CC[C@@H](CO)NC(=O)N[C@H](Cc2ccccc2)Cn2cc(-c3ccccc3N)nn2)oc(C(C)=O)c1C(=O)OC")
"YES"
>>> label_class("CCOc1ccc(N2C(=O)/C(=C/C=C/c3ccccc3OC)S(=O)(=O)C2c2cccc([N+](=O)[O-])c2)cc1 (stereo not drawn)")
"NO"

###

Listed here: items and their measured composite z-score.
tested on: Sam68 (KHDRBS1); assay: Sam68 small-molecule binders, primary screen, biochemical, small-molecule microarray, 635 nm fluorescence (AID 1125); details: small-molecule microarray binding, higher = more signal;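 also: score merges 667 nm channel intensity with signal to noise over triplicate slides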
assay_metric: composite z-score

>>> result("CCN1C(=O)[C@H]2[C@H]3[C@H](O)[C@H](O)CC(=NOCc4ccccc4)[C@@H]3CC[C@H]2C1=O")
0.598
>>> result("C[C@@H]1C=CCC(=O)OC[C@H](C)C(=O)N[C@@H](C)C(=O)OC1")
0.175
>>> result("C=CC[C@]1(C(=O)NCc2ccccc2)N=C(c2ccc(OCCCO)cc2)O[C@H]1c1ccccc1")
1.28
>>> result("CCN(CC)c1ccc(N2CC=CC34O[C@@H]5/C=C\\CCC(C)OC(=O)C5[C@H]3C(=O)N(CCCO)[C@@H]4C2=O)cc1 (stereo partly specified)")
-0.383
>>> result("C[C@@H](c1ccccc1)N1C(=O)[C@H]2[C@H]3[C@H](O)[C@H](O)CC(=NOC[C@@H](O)COCc4ccco4)[C@@H]3CC[C@H]2C1=O")
-0.779
>>> result("COC(=O)[C@H](C)NC(=O)[C@@H](C)CO")
1.03
>>> result("CCCC[C@@H]1C[C@H]1[C@@H](NS(=O)(=O)c1cccc2cccnc12)c1ccc(-c2ccccc2)cc1")
-0.0217
>>> result("Cc1ccc(S[C@]2(C(=O)O)CC(=O)N(Cc3ccccc3)[C@@H]2c2ccc(CO)cc2I)cc1")
0.21
>>> result("COC(=O)[C@]1(CO)N=C(c2ccc(OCCCO)cc2)O[C@@H]1c1ccccc1N=[N+]=[N-]")
1.29
>>> result("O=C(CS)NCCCCCNC(=O)[C@@H]1C[C@@H]2C(=O)N[C@@H](Cc3ccccc3)C(=O)N2[C@@H]1c1ccc(O)cc1")
1.3
>>> result("CC(CCN1CCc2nc(-c3ccccc3)c(-c3ccccc3)cc2C1)=NO[C@@H](C)c1cn([C@H](CO)Cc2ccccc2)nn1")
-0.163
>>> result("COc1ccc(COC(=O)NN=C2C[C@@H](O)[C@@H](O)[C@@H]3[C@@H]4C(=O)N(c5ccc(F)cc5F)C(=O)[C@@H]4CC[C@@H]23)cc1")
-0.356
>>> result("Cc1cc2c(nc1C)CCCN2CC(O)CN1CCN(C)CC1 (stereo unspecified)")
0.693
>>> result("CC(=O)OC[C@H]1O[C@@H](ON=C(C)CCN2CCc3nc(-c4ccccc4)c(-c4ccccc4)cc3C2)[C@H](OC(C)=O)[C@@H](OC(C)=O)[C@@H]1OC(C)=O")
1.3
>>> result("COc1ccc(O[C@H]2C=C[C@@H](c3ccccc3)O[C@@H]2COC(=O)CCC(C)=NOC(C)CN2CCCCc3nc(C)c(C)cc32)cc1 (stereo partly specified)")
-0.433
>>> result("CO[C@H]([C@@H](C)[C@H](OC)c1ccccc1)[C@H](C)[C@@H](OC)[C@H](C)C(C)=O")
-1.24
